Target: cAMP-dependent protein kinase catalytic subunit-alpha (PKACa) (Homo sapiens)
Test: In vitro phosphorylation of nucleocapsid peptides, ADP-Glo, PKACa
Type: biochemical
Conditions: peptide ~250 μM, 250 μM ATP, 30 min at 30° C.; duplicate measurements
Where no end group is shown, it is not given here. [ ]: non-standard residue; d: D form. pT = C[C@@H](OP(=O)(O)O)[C@H](N)C(=O)O; pS = N[C@@H](COP(=O)(O)O)C(=O)O
The following substances are listed with their measured Relative Phosphorylation to Autophosphorylation Control (set at 100), PKACa values.

Below: 4 substances and their reported Relative Phosphorylation to Autophosphorylation Control (set at 100), PKACa.
RNSTPGSSRGT(pS)PAR (RNSTPGSSRGT[pS]PAR) [SCV2-N [195-209]-pS206, synthetic peptide modeled after SARS-CoV-2 nucleocapsid protein phosphorylation sites, pre-phosphorylated at S206]
205
RGGSQASSRSS(pS)RS (RGGSQASSRSS[pS]RS) [SCV2-N [177-190]-pS188, synthetic peptide modeled after SARS-CoV-2 nucleocapsid protein phosphorylation sites, pre-phosphorylated at S188]
128
RNSTPGSSRGTSPAR [SCV2-N [195-209], synthetic peptide modeled after SARS-CoV-2 nucleocapsid protein phosphorylation sites]
151
SSRSRNSSRNS(pT)PG (SSRSRNSSRNS[pT]PG) [SCV2-N [187-200]-pT198, synthetic peptide modeled after SARS-CoV-2 nucleocapsid protein phosphorylation sites, pre-phosphorylated at T198]
157

Note: attention shifts to another entry.
get_value(item= SQASSRSSSR(pS)RNS (SQASSRSSSR[pS]RNS) [SCV2-N [180-193]-pS190, synthetic peptide modeled after SARS-CoV-2 nucleocapsid protein phosphorylation sites, pre-phosphorylated at S190] , readout=Relative Phosphorylation to Autophosphorylation Control (set at 100), PKACa) returns 312
